- testedSystem: Microsomal triglyceride transfer protein (MTP) from bovine liver (Bos taurus)
- Sequence (P55156 12-887): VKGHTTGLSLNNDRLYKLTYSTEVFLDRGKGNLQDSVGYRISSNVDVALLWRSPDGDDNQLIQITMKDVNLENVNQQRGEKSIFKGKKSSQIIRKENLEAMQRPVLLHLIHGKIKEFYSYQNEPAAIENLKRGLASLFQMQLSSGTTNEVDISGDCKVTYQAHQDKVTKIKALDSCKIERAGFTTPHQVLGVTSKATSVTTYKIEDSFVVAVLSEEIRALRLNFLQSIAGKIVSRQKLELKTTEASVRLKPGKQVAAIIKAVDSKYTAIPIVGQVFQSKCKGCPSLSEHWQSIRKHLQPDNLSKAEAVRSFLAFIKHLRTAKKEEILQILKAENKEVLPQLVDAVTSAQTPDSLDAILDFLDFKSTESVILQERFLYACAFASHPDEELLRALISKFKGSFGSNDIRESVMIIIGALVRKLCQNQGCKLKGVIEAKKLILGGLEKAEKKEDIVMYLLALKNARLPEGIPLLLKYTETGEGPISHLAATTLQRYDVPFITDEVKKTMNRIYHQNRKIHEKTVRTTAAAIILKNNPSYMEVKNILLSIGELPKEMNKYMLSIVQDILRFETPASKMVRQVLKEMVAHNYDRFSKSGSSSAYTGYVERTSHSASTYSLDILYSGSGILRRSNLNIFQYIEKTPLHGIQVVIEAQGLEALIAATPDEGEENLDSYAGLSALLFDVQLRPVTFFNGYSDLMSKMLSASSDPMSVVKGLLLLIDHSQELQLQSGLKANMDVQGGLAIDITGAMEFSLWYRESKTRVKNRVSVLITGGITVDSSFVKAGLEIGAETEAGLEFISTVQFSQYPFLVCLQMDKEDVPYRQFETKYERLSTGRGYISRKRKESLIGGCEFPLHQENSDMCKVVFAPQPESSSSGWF
- Sequence (P05307 21-510 partner): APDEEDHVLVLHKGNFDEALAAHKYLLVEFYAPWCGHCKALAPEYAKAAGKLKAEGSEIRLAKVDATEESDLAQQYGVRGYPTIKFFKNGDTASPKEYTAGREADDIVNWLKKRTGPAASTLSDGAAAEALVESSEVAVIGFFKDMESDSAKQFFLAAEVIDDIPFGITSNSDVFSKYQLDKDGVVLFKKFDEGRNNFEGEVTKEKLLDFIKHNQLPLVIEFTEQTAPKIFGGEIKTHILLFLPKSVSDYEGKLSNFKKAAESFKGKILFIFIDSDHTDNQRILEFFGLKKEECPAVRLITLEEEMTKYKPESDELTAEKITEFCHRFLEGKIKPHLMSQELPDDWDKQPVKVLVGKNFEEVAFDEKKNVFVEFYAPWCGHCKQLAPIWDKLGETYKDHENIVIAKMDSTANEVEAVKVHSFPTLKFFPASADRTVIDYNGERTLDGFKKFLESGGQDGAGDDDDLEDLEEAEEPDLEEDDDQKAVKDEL
Reported values of IC50 for individual entries

Suppose we examine the compound CCOC(=O)C(COC(=O)Oc1c(F)cc(NC(=O)c2ccccc2-c2ccc(C(F)(F)F)cc2)c(C(=O)N2CCOCC2)c1F)(C(=O)OCC)c1cccs1 [Example 2-38] ; what IC50 value has been reported? 10 to 100 nM

Another compound to look at: CCOC(=O)C(CCC(=O)Oc1c(F)cc(NC(=O)c2ccc(C)cc2-c2ccc(C(F)(F)F)cc2)c(C(=O)N(C)C)c1F)(C(=O)OCC)c1ccccc1 [Example 3-22] < 10 nM

Another compound to look at: CCOC(=O)C(COC(=O)Cc1ccc(NC(=O)c2ccc(C)cc2-c2ccc(C(F)(F)F)cc2)c(OC(C)=O)c1)(C(=O)OCC)c1ccccc1 [Example 1-5] < 10 nM

Another compound to look at: CCOC(=O)C(COC(=O)Oc1ccc(NC(=O)c2cnc(NC)nc2-c2ccc(C(F)(F)F)cc2)c(C(=O)N(C)C)c1)(C(=O)OCC)c1ccccc1 [Example 2-27] 10 to 100 nM

Another compound to look at: CCOC(=O)C(COC(=O)Oc1c(F)cc(NC(=O)c2ccccc2-c2ccc(C(F)(F)F)cc2)c(OC(C)C)c1F)(C(=O)OCC)c1cccs1 [Example 2-52] < 10 nM

Another compound to look at: CCOC(=O)C(COC(=O)Oc1ccc(NC(=O)c2ccccc2-c2ccc(C(F)(F)F)cc2)c(C(=O)N(C)CC)c1)(C(=O)OCC)c1ccccc1 [Example 2-12] < 10 nM

Another compound to look at: CCNC(=O)C(COCCC(=O)Oc1c(F)cc(NC(=O)c2ccccc2-c2ccc(C(F)(F)F)cc2)c(C(=O)N(C)C)c1F)(C(=O)NCC)c1ccccc1 [Example 3-16] < 10 nM

Another compound to look at: CCOC(=O)C(CC(=O)Oc1ccc(NC(=O)c2ccccc2-c2ccc(C(F)(F)F)cc2)c(C(=O)N(C)C)c1)(C(=O)OCC)c1ccccc1 [Example 3-4] < 10 nM

Another compound to look at: CCOC(=O)C(CC(=O)OCc1ccc(NC(=O)c2ccccc2-c2ccc(C(F)(F)F)cc2)c(C(=O)N(C)C)c1)(C(=O)OCC)c1ccccc1 [Example 3-5] < 10 nM

Another compound to look at: CCOC(=O)C(COC(=O)Oc1c(F)cc(NC(=O)c2ccccc2-c2ccc(C(F)(F)F)cc2)c(C(=O)N2CCN(C(C)=O)CC2)c1F)(C(=O)OCC)c1cccs1 [Example 2-46] 100 to 1000 nM

Another compound to look at: CCNC(=O)C(COC(=O)Oc1cc(C(=O)N(C)C)c(NC(=O)c2ccccc2-c2ccc(C(F)(F)F)cc2)cc1F)(C(=O)NCC)c1ccccc1 [Example 2-11] 100 to 1000 nM

Another compound to look at: CCOC(=O)C(COC(=O)COc1ccc(NC(=O)c2ccccc2-c2ccc(C(F)(F)F)cc2)c(C(=O)N(C)C)c1)(C(=O)OCC)c1ccccc1 [Example 3-2] < 10 nM
